Tested System: CDK2/cyclin E (Homo sapiens, UniProt P24941)
Construct: His; made in house; host or cells: Sf9 insect cells (baculovirus)
Assay Overview: CDK2/Cyclin E kinase assay (GST-Rb phosphorylation, radiolabelled ATP);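 note: enzyme was His-tagged CDK2/cyclin E co-expressed in baculovirus-infected Sf9 insect cells and purified over a metal-chelate column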
Assay type: biochemical
Condition Context: bound stated, (±0.05); read-out: IC50 for cdk2/cyclinE
Parameter Measured: IC50

Input line: Annotate the compound Cc1[nH]c(C#N)c(C)c1-c1ccnc(Nc2ccc(F)cc2)n1 [Compound 32] with its measured IC50.
Output line: < 0.5 µM

Input line: Return value of IC50 for input Cc1c[nH]c(C)c1-c1ccnc(Nc2ccc(I)c(F)c2)n1 [Compound 17] , no commentary.
Output line: < 5 µM

Input line: Given Cc1cn(C)c(C)c1-c1ccnc(Nc2ccc(F)cc2)n1 [Compound 46] , respond with its IC50.
Output line: < 5 µM

Input line: Quick one: give measured IC50 for Cc1ccc(Nc2nccc(-c3c(C)[nH]c(C#N)c3C)n2)cc1F [Compound 42]
Output line: < 1 µM

Input line: Report IC50, nothing else, for this compound: Cc1c[nH]c(C)c1-c1ccnc(Nc2ccc(Cl)cc2)n1 [Compound 5]
Output line: < 5 µM

Input line: Provide measured IC50 value, entry: Cc1c[nH]c(C)c1-c1ccnc(Nc2ccc(I)c(Cl)c2)n1 [Compound 16]
Output line: < 5 µM

Input line: // fetch IC50 given entry Cc1ccc(Nc2nccc(-c3c(C)[nH]c(C#N)c3C)n2)cc1I [Compound 38]
Output line: < 1 µM

Input line: Output IC50 of Cc1c[nH]c(C)c1-c1ccnc(Nc2cccc(O)c2)n1 [Compound 8]
Output line: < 5 µM

Input line: Provide measured IC50 value, entry: Cc1c[nH]c(C)c1-c1ccnc(Nc2cc(F)cc(F)c2)n1 [Compound 6]
Output line: < 5 µM
